- System tested: T1, exemplary TAT frataxin fusion molecule (HIV-1, UniProt Q16595 1-210)
- T1 construct: in the bridging assays biotinylated and sulfotagged forms were used; also called TAT-FXN fusion molecule; TAT FXN fusion molecule
- T1 sequence: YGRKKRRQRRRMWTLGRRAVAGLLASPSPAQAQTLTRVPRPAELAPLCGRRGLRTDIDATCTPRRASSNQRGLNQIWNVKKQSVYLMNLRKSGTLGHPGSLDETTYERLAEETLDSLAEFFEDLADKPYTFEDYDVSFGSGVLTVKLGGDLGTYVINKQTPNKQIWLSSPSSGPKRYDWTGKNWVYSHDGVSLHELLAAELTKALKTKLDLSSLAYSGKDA
- Test description: PK sandwich ELISA in human plasma, antibody as capture, HRP anti-frataxin mAb detection
Readout kind: Mean OD at plasma conc. 0.800 ng/mL (OD)
One number for each entry, in OD.

Below, 3 binders whose answers are already recorded.
{"Binder": "antibody 10-4 (antibody, V domains shown, Rabbit monoclonal) VH: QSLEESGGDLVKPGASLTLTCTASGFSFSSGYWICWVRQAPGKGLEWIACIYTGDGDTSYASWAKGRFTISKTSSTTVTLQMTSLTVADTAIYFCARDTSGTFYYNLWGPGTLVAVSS VL: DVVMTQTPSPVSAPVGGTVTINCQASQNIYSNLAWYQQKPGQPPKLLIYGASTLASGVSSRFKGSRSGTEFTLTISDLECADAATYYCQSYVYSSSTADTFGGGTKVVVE", "Readout kind": "Mean OD at plasma conc. 0.800 ng/mL", "Numeric readout": 0.092}
{"Binder": "antibody 10-9 (antibody, V domains shown, Rabbit monoclonal) VH: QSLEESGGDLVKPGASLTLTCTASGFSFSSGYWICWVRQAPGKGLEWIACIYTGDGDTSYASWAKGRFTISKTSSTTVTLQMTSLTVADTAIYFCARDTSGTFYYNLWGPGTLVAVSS VL: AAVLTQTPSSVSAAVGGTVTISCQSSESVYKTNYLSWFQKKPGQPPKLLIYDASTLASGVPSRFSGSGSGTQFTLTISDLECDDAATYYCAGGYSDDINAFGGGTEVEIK", "Readout kind": "Mean OD at plasma conc. 0.800 ng/mL", "Numeric readout": 0.1}
{"Binder": "antibody 10-5 (antibody, V domains shown, Rabbit monoclonal) VH: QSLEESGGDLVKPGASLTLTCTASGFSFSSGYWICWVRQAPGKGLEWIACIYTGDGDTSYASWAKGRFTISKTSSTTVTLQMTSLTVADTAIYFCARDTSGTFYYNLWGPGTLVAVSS VL: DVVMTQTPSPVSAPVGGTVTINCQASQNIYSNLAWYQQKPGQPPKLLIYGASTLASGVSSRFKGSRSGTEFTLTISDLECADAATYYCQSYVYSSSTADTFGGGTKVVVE", "Readout kind": "Mean OD at plasma conc. 0.800 ng/mL", "Numeric readout": 0.09}

Consider the additional binder presented here.
## Task Sample antibody 12-3 (antibody, V domains shown, Rabbit monoclonal) VH: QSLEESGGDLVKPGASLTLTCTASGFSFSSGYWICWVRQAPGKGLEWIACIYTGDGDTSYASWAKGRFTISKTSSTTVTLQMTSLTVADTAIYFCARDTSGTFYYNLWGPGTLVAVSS VL: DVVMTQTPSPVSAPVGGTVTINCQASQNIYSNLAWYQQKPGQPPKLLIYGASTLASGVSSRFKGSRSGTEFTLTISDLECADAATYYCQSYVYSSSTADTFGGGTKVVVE — what was its Mean OD at plasma conc. 0.800 ng/mL?
## Result 0.091
